- system.under.test: human RNaseH1 (Homo sapiens)
- Sequence (O60930 1-286): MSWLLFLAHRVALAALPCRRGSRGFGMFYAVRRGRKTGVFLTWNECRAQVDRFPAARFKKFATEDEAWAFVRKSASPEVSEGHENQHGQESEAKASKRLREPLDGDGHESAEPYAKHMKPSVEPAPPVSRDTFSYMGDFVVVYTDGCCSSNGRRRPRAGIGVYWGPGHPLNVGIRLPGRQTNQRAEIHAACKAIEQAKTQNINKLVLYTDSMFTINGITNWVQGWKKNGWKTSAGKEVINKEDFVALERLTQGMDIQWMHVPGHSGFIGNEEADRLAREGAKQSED
- test.name: Biochemical inhibition of human RNaseH1 activity
- condition.parameters: Table 2 amides; read-out: HuRH1 IC50
pIC50: −log10 of the molar value.
Rule: pIC50 under 4 gives Criterion not met, otherwise Criterion met.

Before answering, review these 3 worked examples.
Cc1cc(O)c(=O)c(O)cc1C(=O)NCCCc1ccccc1 [compound 708] :: Criterion not met
Cc1cc(O)c(=O)c(O)cc1C(=O)NCc1ccccc1 [compound 388] :: Criterion not met
Cc1cc(O)c(=O)c(O)cc1C(=O)N1CCN(c2oc(-c3ccco3)nc2C#N)CC1 [compound 803] :: Criterion met

Hello, I need to know if Cc1cc(O)c(=O)c(O)cc1C(=O)NC(CCCCNC(=O)OC(C)(C)C)C(=O)OC(C)(C)C (stereo not drawn) [compound 869] has measured pIC50 not below 4. Thanks!
Criterion not met

Hello, I need to know if Cc1cc(O)c(=O)c(O)cc1C(=O)N1CCN(C(c2ccc(F)cc2)c2ccc(F)cc2)CC1 [compound 1017] has measured pIC50 not below 4. Thanks!
Criterion met

Hello, I need to know if Cc1ccc(CNC(=O)c2cc(O)c(=O)c(O)cc2C)c(C)c1 [compound 809] has measured pIC50 not below 4. Thanks!
Criterion met

Hello, I need to know if Cc1cc(O)c(=O)c(O)cc1C(=O)N1CCN(c2ncccn2)CC1 [compound 1016] has measured pIC50 not below 4. Thanks!
Criterion met

Hello, I need to know if Cc1cc(O)c(=O)c(O)cc1C(=O)N1CCN(Cc2c(F)cccc2Cl)CC1 [compound 1021] has measured pIC50 not below 4. Thanks!
Criterion met

Hello, I need to know if Cc1cc(O)c(=O)c(O)cc1C(=O)Nc1ccccc1OCc1ccccc1 [compound 835] has measured pIC50 not below 4. Thanks!
Criterion not met

---

- test.name: in vitro
- condition.parameters: human, CC50; HepDES19 cells
Catalogue of CC50 at 24 h values

Cc1cc(O)c(=O)c(O)cc1C(=O)N1CCNCC1 [compound 391] :: > 20 µM
Cc1cc(O)c(=O)c(O)cc1C(=O)Nc1ccccc1 [compound 389] :: > 20 µM

# CC50 at 24 h lookup, item Cc1cc(O)c(=O)c(O)cc1C(=O)N1CCCCC1 [compound 390]
> 20 µM

---

- Tested on: HSV-1
- test.name: Anti-HSV-1 replication assay (Vero cells, plaque titer)
- Format: cell-based, herpes simplex virus 1
- condition.parameters: Human alphaherpesvirus 1, Vero, Table 2 amides; compound at 1 μM; values separated by / are repeats; read-out: HSV-1 suppression 1 μM
endpoint.name: log reduction at 1 µM
I'd appreciate a reply containing only the number, no unit.

Cc1cc(O)c(=O)c(O)cc1C(=O)NCc1ccc(-c2ccccc2)cc1 :: 0.52
Cc1cc(O)c(=O)c(O)cc1C(=O)NCc1ccc(Oc2ccccc2)cc1 :: -0.11
Cc1cc(O)c(=O)c(O)cc1C(=O)N1CCN(C2CC2)CC1 :: -0.1

# log reduction at 1 µM lookup, item Cc1cc(O)c(=O)c(O)cc1C(=O)Nc1ccc(Cc2ccccc2)cc1
2.32

---

- system.under.test: human RNaseH1 (Homo sapiens)
- test.name: Biochemical inhibition of human RNaseH1 activity
- condition.parameters: Table 2 amides; read-out: HuRH1 IC50
Each record is given yes (1) if its reported IC50 is strictly below 90 µM. Records at or above 90 µM are given no (0).

Cc1cc(O)c(=O)c(O)cc1C(=O)Nc1ccccc1 [compound 389] :: yes (1)
Cc1cc(O)c(=O)c(O)cc1C(=O)N1CCSC1 [compound 712] :: no (0)
Cc1cc(O)c(=O)c(O)cc1C(=O)Nc1ccccc1Cc1ccccc1 [compound 834] :: yes (1)
COC(=O)[C@H](Cc1c[nH]c2ccccc12)NC(=O)c1cc(O)c(=O)c(O)cc1C [compound 797] :: yes (1)
Cc1cc(O)c(=O)c(O)cc1C(=O)NCc1ccc(N2CCCC2)cc1 [compound 1019] :: no (0)
CCS(=O)(=O)N1CCN(C(=O)c2cc(O)c(=O)c(O)cc2C)CC1 [compound 802] :: yes (1)
Cc1cc(O)c(=O)c(O)cc1C(=O)NCCc1ccccc1 [compound 710] :: yes (1)
Cc1cc(O)c(=O)c(O)cc1C(=O)N1CCN(C(=O)C2CCCCC2)CC1 [compound 872] :: no (0)

Identify whether the compound Cc1cc(O)c(=O)c(O)cc1C(=O)NCC1CCCCN1C(=O)OC(C)(C)C (stereo not drawn) [compound 810] records IC50 below 90 µM.
yes (1)

Identify whether the compound COC(=O)[C@H](Cc1ccccc1)NC(=O)c1cc(O)c(=O)c(O)cc1C [compound 795] records IC50 below 90 µM.
yes (1)

Identify whether the compound Cc1cc(O)c(=O)c(O)cc1C(=O)NCCNS(=O)(=O)c1ccc(C(F)(F)F)cc1 [compound 874] records IC50 below 90 µM.
yes (1)

Identify whether the compound COC(=O)[C@H](CCSC)NC(=O)c1cc(O)c(=O)c(O)cc1C [compound 796] records IC50 below 90 µM.
yes (1)

Identify whether the compound COC(=O)[C@@H](NC(=O)c1cc(O)c(=O)c(O)cc1C)C(C)C [compound 793] records IC50 below 90 µM.
no (0)

Identify whether the compound Cc1cc(O)c(=O)c(O)cc1C(=O)NCc1ccc(-c2ccccc2)cc1 [compound 539] records IC50 below 90 µM.
yes (1)

Identify whether the compound Cc1cc(O)c(=O)c(O)cc1C(=O)NCC1CCOC1 (stereo not drawn) [compound 1018] records IC50 below 90 µM.
no (0)

---

- system.under.test: human RNaseH1 (Homo sapiens, UniProt O60930)
- Sequence (O60930 1-286): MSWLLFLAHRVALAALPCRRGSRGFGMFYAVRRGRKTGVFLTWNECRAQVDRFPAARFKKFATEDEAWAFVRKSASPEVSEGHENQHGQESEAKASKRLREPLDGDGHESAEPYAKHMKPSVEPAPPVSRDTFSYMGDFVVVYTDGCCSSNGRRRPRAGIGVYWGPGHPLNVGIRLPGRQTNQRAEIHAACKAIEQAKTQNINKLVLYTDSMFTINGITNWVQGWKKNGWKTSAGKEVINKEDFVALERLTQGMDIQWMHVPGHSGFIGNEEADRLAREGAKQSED
- test.name: Biochemical inhibition of human RNaseH1 activity
- condition.parameters: Table 2 amides; read-out: HuRH1 IC50
pIC50: −log10 of the molar value.
Rule: pIC50 under 4 gives No, otherwise Yes.

Before answering, review these 2 worked examples.
COC(=O)[C@H](CC(C)C)NC(=O)c1cc(O)c(=O)c(O)cc1C [compound 794] :: Yes
Cc1cc(O)c(=O)c(O)cc1C(=O)NC(CC(C)C)C(=O)OC(C)(C)C (stereo not drawn) [compound 870] :: No

Hello, I need to know if Cc1cc(O)c(=O)c(O)cc1C(=O)Nc1cccc(OCc2ccccc2)c1 [compound 836] has measured pIC50 not below 4. Thanks!
No

Hello, I need to know if Cc1cc(O)c(=O)c(O)cc1C(=O)Nc1cccc(Cc2ccccc2)c1 [compound 799] has measured pIC50 not below 4. Thanks!
No

Hello, I need to know if Cc1cc(O)c(=O)c(O)cc1C(=O)N1CCN(C(=O)c2ccc(Cl)cc2)CC1 [compound 875] has measured pIC50 not below 4. Thanks!
Yes

Hello, I need to know if Cc1cc(O)c(=O)c(O)cc1C(=O)N1CCN(C(=O)N(c2ccccc2)c2ccccc2)CC1 [compound 1020] has measured pIC50 not below 4. Thanks!
Yes

---

- system.under.test: human RNaseH1 (Homo sapiens, UniProt O60930)
- test.name: Biochemical inhibition of human RNaseH1 activity
- condition.parameters: Table 2 amides; read-out: HuRH1 IC50
Catalogue of pIC50 values
pIC50 here is simply -log10 of the concentration when that concentration is written in mol/L.

See these solved cases before continuing.
Cc1cc(O)c(=O)c(O)cc1C(=O)N1CCN(C2CC2)CC1 [compound 871] :: 4.05
C#CCCC1(CCNC(=O)c2cc(O)c(=O)c(O)cc2C)N=N1 [compound 384] :: 3.95

We next turn to a different compound, shown below.
# pIC50 lookup, item Cc1cc(O)c(=O)c(O)cc1C(=O)NCC1CCN(C(=O)OC(C)(C)C)CC1 [compound 805]
4.11
